Hello, the source for this data is patent US20220143196A1, in case you need it.

biological target: T1, human MC3R (human, UniProt P41968 1-323); test: competitive binding vs 125I-NDP-α-MSH on whole HEK293 cells overexpressing human MC3R
T1 construct: whole, on cells
T1 sequence (P41968 whole entry): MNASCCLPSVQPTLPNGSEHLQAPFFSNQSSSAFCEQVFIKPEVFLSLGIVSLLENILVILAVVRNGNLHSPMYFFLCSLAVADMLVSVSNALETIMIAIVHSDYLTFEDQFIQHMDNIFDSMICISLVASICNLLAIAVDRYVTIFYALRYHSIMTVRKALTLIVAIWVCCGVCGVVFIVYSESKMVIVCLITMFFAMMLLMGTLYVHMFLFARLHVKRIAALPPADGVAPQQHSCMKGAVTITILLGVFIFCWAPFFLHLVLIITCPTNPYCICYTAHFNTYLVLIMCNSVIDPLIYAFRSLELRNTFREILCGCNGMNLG
Reported Endpoint: pKi
To interpret pKi, take it as minus log10 of a concentration measured in moles per litre.

input: State its pKi: CXLDHFRWK (not fully specified; Cys 1 thiol joined by a disulfide to a 2-thioethyl carbonate linker carrying camptothecin; 6-aminohexanoic acid (6-Ahx) at 2; Nle at 3; D-Phe at 6; lactam cyclization between Asp 4 and Lys 9 side chains; C-terminal amide; no N-terminal acetyl on Nle (replaced by the Cys-6-Ahx spacer), also called CPT-MT-II (1); camptothecin-MT-II (1)) [camptothecin (CPT)-MT-II conjugate (1)]
output: 6.52
